Data provenance is PubChem BioAssay (NCI).

# growth per entry
- Tested on: KM12 colon
- experimentDescription: NCI-60 one-dose screen, 48 h (100 = growth as untreated, 0 = no growth, -100 = all killed)
- runConditions: 10 µM unless noted
This is part of a sample that, as a whole, favours compounds with a hit. Of some 83,000 tested, about 20% had one in any assay.
The answer is to be given in %; state only the numeric part.

Known results for compounds:
compound	measuredTarget	resultUnits	growth
COc1cc2c(cc1OC)C(=O)C(Br)CC2 (configuration not stated)	KM12 colon	%	88.9
O=C1CC2(O)CSc3nc(=O)cc(n32)N1 (configuration not stated)	KM12 colon	%	102
CC(=O)Nc1nonc1-c1nc2ccccc2n1Cc1ccc(C(C)(C)C)cc1	KM12 colon	%	69.3
COc1ccc(NC(=O)C2c3ccccc3C(=O)N(CC(C)C)C2c2cccs2)cc1 (configuration not stated)	KM12 colon	%	97.5
CCC(=O)NC(O)C(Cl)(Cl)C(C)Cl (configuration not stated)	KM12 colon	%	103
O=C(/C=C/c1cccc([N+](=O)[O-])c1)c1ccc(Nc2nc(N3CCCCC3)nc(N3CCCCC3)n2)cc1	KM12 colon	%	85.5

Shift focus to the following entry.
Endpoint output: growth of O=C(Nc1ccc(Oc2ccc(Nc3nc4ccccc4s3)cc2)cc1)Nc1ccc(Cl)c(C(F)(F)F)c1 . Value?
0.448

----------
- Tested on: NCI-H522 lung
- experimentDescription: NCI-60 one-dose screen, 48 h
- runConditions: 10 µM unless noted
The panel holds about 83,000 compounds, 20% with a hit somewhere; the sample as a whole holds those more often. The source made the active and inactive calls. The calls were made as follows: active = growth percent below 10; inactive = the rest.
Result category, one only: true (1) for active, false (0) for inactive

These recorded examples may help you get a feel for the data.
>>> print(df.to_string())
                                   compound  assignedcategory
0  CSCCC1NC(=O)C(C(C)=Nc2ccccc2)=C1O (stereo unspecified)         false (0)
1  COc1ccc2nc(NC(=O)/C(=C/c3cc(OC)c(OC)c(OC)c3)c3ccc(OC)c(OC)c3)sc2c1         false (0)
2         CC(C)OC(=O)c1ccc([N+](=O)[O-])cc1         false (0)
3  Fc1[nH]nc2ccc([C@@H]3Nc4ccc5[nH]ncc5c4[C@H]4C5CCC(C5)[C@@H]34)cc12 (stereo partly specified)         false (0)
4  Fc1cc(-c2nnc3sc(-c4ccc(Cl)cc4)nn23)c(Cl)cc1Cl         false (0)
5      CCCCN(CCCC)CCC(=O)c1ccc(OC)c2ccccc12         false (0)
6  CC(=O)c1cc(C(=O)c2ccc3c(c2)Sc2ccccc2N3)c2c(C)cccn12         false (0)
7  CC1(C)C2CCC(O)(C(=O)O)C1C2 (stereo unspecified)         false (0)
8             CC(C)NC(=O)OCC#CCOC(=O)NC(C)C         false (0)
9  COc1ccc(/C=C2\CCCC3=C2N=C2SC(C)=NN2C3c2ccc(OC)c(OC)c2)cc1OC (stereo unspecified)         false (0)

Recorded test call requested for Cc1cc(C#Cc2ccccc2)ccc1-n1c(/C=C/c2ccc(F)cc2)nc2ccccc2c1=O
false (0)

----------
- System: SF-268 CNS
- experimentDescription: NCI-60 one-dose screen, 48 h (100 = growth as untreated, 0 = no growth, -100 = all killed)
- runConditions: 10 µM unless noted
The panel holds about 83,000 compounds, 20% with a hit somewhere; the sample as a whole holds those more often. Activity calls are given as the source filed them. How the source made its calls: active means growth percent below 10; inactive means the rest.
experimentalEndpoint: growth

Notebook entry, SF-268 CNS assay: growth of O=C1c2ccccc2C(=O)c2c1oc1ccc3ccccc3c21 = ?
76.7% (inactive)

// lookup growth | system=SF-268 CNS | key= COc1cc(-c2nc(-c3nc4cc(C(=O)c5ccccc5)ccc4[nH]3)cc3c2[nH]c2ccccc23)cc(OC)c1OC
99.5% (inactive)

Test system SF-268 CNS; read-out growth; what value for Brc1cccc(-n2ncc3c(Nc4ccc(-c5nnc(-c6ccccc6)o5)cc4)ncnc32)c1 ?
98.6% (inactive)

Record lookup: for SF-268 CNS, what growth belongs to COC(=O)C(C)NC1=C(Cl)C(=O)C(NC(C)C(=O)OC)=C(Cl)C1=O (configuration not stated) ?
102% (inactive)

Give recorded growth with SF-268 CNS for the following compound: CC(C)c1[nH]ncc1-c1nc2ccc3[nH]ncc3c2c2c1CCCC2
36.7% (inactive)

Give SF-268 CNS growth for NS(=O)(=O)c1ccc(N2N=C(c3cccs3)CC2c2ccccc2O)cc1 (configuration not stated)
7.15% (active)

SF-268 CNS / growth / O=C(N=Nc1c(Cl)c(O)c2ccccc2c1O)C(=O)Nc1cccc(C(F)(F)F)c1 : value?
68.2% (inactive)

Requested read-out growth, target or system SF-268 CNS, entry COc1ccc(Nc2ncnc3c2sc2nc(C)cc(C)c23)cc1
94.3% (inactive)

SF-268 CNS / growth / COc1ccc(/C(=C\c2cc(OC)c(OC)c(OC)c2)C(=O)Nc2nc3ccc(Cl)cc3s2)cc1 : value?
71.1% (inactive)

Please state recorded growth (tested on SF-268 CNS) of Cc1n(Cc2ccc3ccccc3n2)cc[n+]1Cc1ccc2ccccc2n1
73.5% (inactive)

Under SF-268 CNS: growth value of Cc1[nH]n(C(=O)c2ccncc2)c(=O)c1N=Nc1ccc(O)c(C(=O)O)c1 ?
106% (inactive)

Find the measured growth: item CCCCN(CCCC)CCC(=O)c1ccc(OC)c2ccccc12 , target or system SF-268 CNS.
95% (inactive)

----------
We begin with a simple list: items and their reported growth.
- System: SW-620 colon
- experimentDescription: NCI-60 one-dose screen, 48 h (100 = growth as untreated, 0 = no growth, -100 = all killed)
- runConditions: 10 µM unless noted
About 83,000 compounds went through this panel and 20% of them were active in at least one assay; those are over-represented in the sample as a whole. Calls of active or inactive are those of the source. How the source made its calls: active means growth percent below 10; inactive means the rest.

Below, 5 compounds whose answers are already recorded.
                                   compound     observedvalue
0      CCN(CC)CCCCCCCNc1cc(OC)cc2c(C)ccnc12  88.6% (inactive)
1   Cc1ccc2cc3c(NC(=O)c4cccnc4)nn(C)c3nc2c1  92.5% (inactive)
2                   CCNS(=O)(=O)c1ccc(C)cc1   107% (inactive)
3  O=C(Nc1ccc2ncnc(Nc3ccc(F)c(Cl)c3)c2c1)c1cccs1  93.2% (inactive)
4                 COCCCNCC(=O)Nc1c(C)cccc1C   114% (inactive)

Name the recorded growth for Clc1ncnc2scc(C3COc4ccccc4O3)c12 (stereo not drawn) .
93.3% (inactive)

Any idea what growth was measured for COc1ccccc1/C=N\NC(=S)Nc1ccc(F)cc1 ?
37.5% (inactive)

Data request, read-out growth, for COc1ccc(Sc2[nH]c(C=O)c3ccccc23)cc1
16.1% (inactive)

----------
- Tested on: HT29 colon
- experimentDescription: NCI-60 one-dose screen, 48 h
- runConditions: 10 µM unless noted
This is part of a sample that, as a whole, favours compounds with a hit. Of some 83,000 tested, about 20% had one in any assay. Calls of active or inactive are those of the source. Rule for the calls: active = growth percent below 10; inactive = the rest.
Field 'call' accepts active, inactive

Example entries and their recorded answers appear below.
                                   compound  assignedcategory
0    O=NN(CC(=O)NNc1ccccc1)CC(=O)NNc1ccccc1          inactive
1  CC(=O)c1cccc(Nc2ncnc3ccc(NC(=O)c4ccco4)cc23)c1          inactive
2  O=C(c1ccc(C(F)(F)F)c(Cl)c1)N(Cc1ccc(Cl)cc1)c1ccc(-c2cc(C(F)(F)F)[nH]n2)c(O)c1            active
3  N#Cc1c(N)n(C2OC(CO)C(O)C2O)c2ncnc(N)c12 (centres undefined)            active
4  Cc1ccc(-c2nc3ccccc3c(=O)n2/N=C/c2cccc3ccccc23)cc1          inactive

# outcome recorded in this test, key = CC1=NN(c2cccc(S(N)(=O)=O)c2)C(=O)C1
inactive

Test call, this compound: CCOC(=O)c1ccccc1SC(C[N+](=O)[O-])c1ccccc1 (centres undefined)
active

Test call for this compound, please: CC(=O)N1N=C(c2ccc(C)cc2)CC1c1cn(-c2ccccc2)nc1-c1cccc(Nc2ccnc3cc(Cl)ccc23)c1 (centres undefined)
inactive

Record request — test call for NS(=O)(=O)c1ccc(N2N=C(c3ccc(Br)cc3)CC2c2cn(-c3ccccc3)nc2-c2ccc(Cl)cc2)cc1 (centres undefined)
inactive

----------
// values below are reported growth
- System: RXF 393 renal
- experimentDescription: NCI-60 one-dose screen, 48 h (100 = growth as untreated, 0 = no growth, -100 = all killed)
- runConditions: 10 µM unless noted
The panel holds about 83,000 compounds, 20% with a hit somewhere; the sample as a whole holds those more often.
The figure you give is taken to be in %; do not add the unit.

Some entries whose results are on file:
>>> print(df.to_string())
                                   compound  observedvalue
0     CCN(CC)c1ccc(C(=N)c2ccc(N(C)C)cc2)cc1           12.8
1    O=C1C=CC(=O)N1c1cccc(N2C(=O)C=CC2=O)c1          -2.87
2  Cc1ccc(NC(=O)c2nc(S(C)(=O)=O)oc2-c2ccc(F)cc2)cc1Nc1ccc2ncn(C)c(=O)c2c1             45
3  COc1ccc(/C(=C\c2cc(OC)c(OC)c(OC)c2)C(=O)N2CCCNCC2)cc1           98.4
4  O=C(Nc1ccc(Cl)c(C(F)(F)F)c1)c1ccc(Nc2ccc(Cl)nn2)cc1           47.8
5  COc1ccc(C2=CC(c3ccc(OC)cc3Br)N3C=CSC3=N2)cc1 (configuration not stated)           84.6
6  CC[C@H](Nc1nc(C)nc(N)c1C#N)c1nc2cccc(NCc3ccc(C(=O)NO)cc3)c2c(=O)n1-c1ccccc1          -27.2
7  Brc1cccc(-n2ncc3c(Nc4ccc(-c5nnc(-c6ccccc6)o5)cc4)ncnc32)c1           92.9

Could you share what growth was measured for COc1cc(CN2CCO[C@H](COc3cccc(F)c3)C2)ccc1Cl , tested on RXF 393 renal?
79.3

So what growth did CS(=O)(=O)Nc1cc(-c2cc3ncc(C#N)c(Nc4ccc(Oc5ccccc5)c(Cl)c4)c3s2)cnc1Cl get with RXF 393 renal?
15.9

Item: CCN(CC)CCC(CNc1ccnc2cc(Cl)ccc12)c1ccc(O)cc1 (configuration not stated) Test system: RXF 393 renal Read-out: growth Value: ?
52.5

Form: Entry = N=c1n(Cc2ccccc2)c(N)cc(=O)n1Cc1ccccc1 | System = RXF 393 renal | growth = ____
-15.5
